# Experimental system: CETP (Homo sapiens (Human), UniProt P11597)
# Sequence (P11597 18-493): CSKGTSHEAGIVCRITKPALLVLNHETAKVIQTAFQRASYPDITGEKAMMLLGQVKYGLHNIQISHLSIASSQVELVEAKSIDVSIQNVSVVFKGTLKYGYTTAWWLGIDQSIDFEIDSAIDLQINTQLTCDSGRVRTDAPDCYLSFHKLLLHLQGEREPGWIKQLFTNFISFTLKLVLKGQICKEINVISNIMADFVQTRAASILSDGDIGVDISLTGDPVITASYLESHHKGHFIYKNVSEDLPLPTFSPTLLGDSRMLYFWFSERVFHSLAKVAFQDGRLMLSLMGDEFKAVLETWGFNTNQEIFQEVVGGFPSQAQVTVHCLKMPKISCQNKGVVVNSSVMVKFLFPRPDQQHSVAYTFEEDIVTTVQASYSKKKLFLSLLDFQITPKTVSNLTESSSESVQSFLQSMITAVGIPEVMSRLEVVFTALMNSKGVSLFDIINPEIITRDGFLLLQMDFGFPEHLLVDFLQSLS
# Assay notes: Test for inhibition of cholesteryl ester transfer (in vitro)
# Measurement setup: human plasma as CETP source, LDL from healthy persons as acceptor, rHDL-agarose donor, 37° C.
Property label: pIC50
Kindly note that pIC50 refers to -log10 of the concentration in mol/L and answer with the value alone.

Task: Look up CETP (Homo sapiens (Human), UniProt P11597) data: pIC50 of COc1cc(F)c(-c2ccc(C(=O)O)cc2)cc1C1=C(CN2C(=O)O[C@H](c3cc(C(F)(F)F)cc(C(F)(F)F)c3)[C@@H]2C)CC(C)(C)CC1 , then report it.
Result: 7.84

Task: Look up CETP (Homo sapiens (Human), UniProt P11597) data: pIC50 of C[C@H]1[C@@H](c2cc(C(F)(F)F)cc(C(F)(F)F)c2)OC(=O)N1CC1=C(c2ccc(F)c(-c3ccc(C(=O)O)cc3C(F)(F)F)c2)CCC(C)(C)C1 , then report it.
Result: 8.02

Task: Look up CETP (Homo sapiens (Human), UniProt P11597) data: pIC50 of Cc1cc(C(=O)O)ccc1-c1cccc(C2=C(CN3C(=O)O[C@H](c4cc(C(F)(F)F)cc(C(F)(F)F)c4)[C@@H]3C)CC(C)(C)CC2)c1 , then report it.
Result: 7.97

###

# Experimental system: CETP (Homo sapiens (Human))
# Assay notes: Test for inhibition of cholesteryl ester transfer (in vitro)
# Measurement setup: human plasma as CETP source, LDL from healthy persons as acceptor, rHDL-agarose donor, 37° C.
Property label: pIC50
Kindly note that pIC50 refers to -log10 of the concentration in mol/L and answer with the value alone.

Task: Supply recorded pIC50 for Cc1cc(C(=O)O)ccc1-c1cc(C2=C(CN3C(=O)O[C@H](c4cc(C(F)(F)F)cc(C(F)(F)F)c4)[C@@H]3C)CC(C)(C)CC2)ccc1C here.
Result: 7.80

Task: Supply recorded pIC50 for COc1cc(C)c(-c2ccc(C(=O)O)cc2C)cc1C1=C(CN2C(=O)O[C@H](c3cc(C(F)(F)F)cc(C(F)(F)F)c3)[C@@H]2C)CC(C)(C)CC1 here.
Result: 8.72

Task: Supply recorded pIC50 for COc1ccc(-c2ccc(C(=O)O)cc2Cl)cc1C1=C(CN2C(=O)O[C@H](c3cc(C(F)(F)F)cc(C(F)(F)F)c3)[C@@H]2C)CC(C)(C)CC1 here.
Result: 8.14

Task: Supply recorded pIC50 for COc1cc(F)c(-c2ccc(C(=O)O)cc2C)cc1C1=C(CN2C(=O)O[C@H](c3cc(C(F)(F)F)cc(C(F)(F)F)c3)[C@@H]2C)CC(C)(C)CC1 here.
Result: 8.41

Task: Supply recorded pIC50 for C[C@H]1[C@@H](c2cc(C(F)(F)F)cc(C(F)(F)F)c2)OC(=O)N1CC1=C(c2cc(F)cc(-c3ccc(C(=O)O)cc3C(F)(F)F)c2)CCC(C)(C)C1 here.
Result: 8.30

Task: Supply recorded pIC50 for COc1ccc(-c2ccc(C(=O)O)cc2OC)cc1C1=C(CN2C(=O)O[C@H](c3cc(C(F)(F)F)cc(C(F)(F)F)c3)[C@@H]2C)CC(C)(C)CC1 here.
Result: 7.30

Task: Supply recorded pIC50 for Cc1cc(C(=O)O)ccc1-c1ccc(Cl)c(C2=C(CN3C(=O)O[C@H](c4cc(C(F)(F)F)cc(C(F)(F)F)c4)[C@@H]3C)CC(C)(C)CC2)c1 here.
Result: 7.94

Task: Supply recorded pIC50 for COC(=O)c1ccc(-c2cc(C3=C(CN4C(=O)O[C@H](c5cc(C(F)(F)F)cc(C(F)(F)F)c5)[C@@H]4C)CC(C)(C)CC3)c(OC)cc2F)c(C)c1 here.
Result: 7.82

Task: Supply recorded pIC50 for C[C@H]1[C@@H](c2cc(C(F)(F)F)cc(C(F)(F)F)c2)OC(=O)N1CC1=C(c2cc(-c3ccc(C(=O)O)cc3C(F)(F)F)ccc2Cl)CCC(C)(C)C1 here.
Result: 8.12

Task: Supply recorded pIC50 for COc1cc(C(F)(F)F)c(-c2ccc(C(=O)O)cc2C)cc1C1=C(CN2C(=O)O[C@H](c3cc(C(F)(F)F)cc(C(F)(F)F)c3)[C@@H]2C)CC(C)(C)CC1 here.
Result: 8.12

Task: Supply recorded pIC50 for C[C@H]1[C@@H](c2cc(C(F)(F)F)cc(C(F)(F)F)c2)OC(=O)N1CC1=C(c2cc(-c3ccc(C(=O)O)cc3F)cc(C(F)(F)F)c2)CCC(C)(C)C1 here.
Result: 7.80

Task: Supply recorded pIC50 for COc1ncc(-c2ccc(C(=O)O)cc2C)cc1C1=C(CN2C(=O)O[C@H](c3cc(C(F)(F)F)cc(C(F)(F)F)c3)[C@@H]2C)CC(C)(C)CC1 here.
Result: 8.27

Task: Supply recorded pIC50 for COc1ccc(-c2ccc(C(=O)O)cc2F)cc1C1=C(CN2C(=O)O[C@H](c3cc(C(F)(F)F)cc(C(F)(F)F)c3)[C@@H]2C)CC(C)(C)CC1 here.
Result: 7.63

Reference source for all entries: patent US9493430B2
